Below, each entry is listed with its recorded interaction score.
Target: T1, P1A-bP
T1 chain: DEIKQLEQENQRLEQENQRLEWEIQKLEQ
Assay: two-hybrid library CCNG1;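 further: natural log of median RNA to DNA barcode read ratio; higher means stronger binding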
parameter-measured: interaction score

INSERT INTO assay_data (binder, parameter_measured, recorded_value) VALUES
  ('DENKQLEQEIQRLEQEIQRLEWKNQKLKQ [P11A-bP]', 'interaction score', -0.431),
  ('DKNKQLKQKIQRLKQKIQRLKWENQKLEQ [P12A-bP]', 'interaction score', -0.938),
  ('DEIKQLEQENQRLEQENQRLEWEIQKLEQ [P1A-bP]', 'interaction score', -1.8),
  ('DKNKQLKQENQRLEQKIQRLKWKIQKLKQ [P10A-bP]', 'interaction score', 0.96);
